Test system: Enterococcus faecium EFM.384, Daptomycin resistant mutant (14-A)
Assay type: cell-based
Settings: MHBc with 50 mg/L calcium, 18-20 hours at 37° C.
Observation Type: Efm384 MIC (µg/mL)
Report as a plain number; the unit µg/mL is understood.

Efm384 MIC reading for `CC(C)CCCCCCCCCCC(=O)N[C@@H](Cc1c[nH]c2ccccc12)C(=O)N[C@H](CC(N)=O)C(=O)N[C@@H](CC(=O)O)C(=O)N[C@@H]1C(=O)NCC(=O)N[C@@H](CCCN)C(=O)N[C@@H](CC(=O)O)C(=O)N[C@H](C)C(=O)N[C@@H](CC(=O)O)C(=O)NCC(=O)N[C@H](CO)C(=O)N[C@@H]([C@H](C)CC(=O)O)C(=O)N[C@@H](CC(=O)c2ccccc2N)C(=O)O[C@@H]1C` : 4

###

System: Enterococcus faecium EFM.384, Daptomycin resistant mutant (14-A)
Type: cell-based
Settings: MHBc with 50 mg/L calcium, 18-20 hours at 37° C.
Entries and their measured Efm384 MIC follow.
Report as a plain number; the unit µg/mL is understood.

Record CCCCCCCCCCCCC(=O)N[C@@H](Cc1c[nH]c2ccccc12)C(=O)N[C@H](CC(N)=O)C(=O)N[C@@H](CC(=O)O)C(=O)N[C@@H]1C(=O)NCC(=O)N[C@@H](CCCN)C(=O)N[C@@H](CC(=O)O)C(=O)N[C@H](C)C(=O)N[C@@H](CC(=O)O)C(=O)NCC(=O)N[C@H](CO)C(=O)N[C@@H]([C@H](C)CC(=O)O)C(=O)N[C@@H](CC(=O)c2ccccc2N)C(=O)O[C@@H]1C [Compound 5] / Enterococcus faecium EFM.384, Daptomycin resistant mutant (14-A), Efm384 MIC recorded as 8

Shift focus to the following entry.
Record CCCCCCCCCCOc1ccc(C(=O)N[C@@H](Cc2c[nH]c3ccccc23)C(=O)N[C@H](CC(N)=O)C(=O)N[C@@H](CC(=O)O)C(=O)N[C@@H]2C(=O)NCC(=O)N[C@@H](CCCN)C(=O)N[C@@H](CC(=O)O)C(=O)N[C@H](C)C(=O)N[C@@H](CC(=O)O)C(=O)NCC(=O)N[C@H](CO)C(=O)N[C@@H]([C@H](C)CC(=O)O)C(=O)N[C@@H](CC(=O)c3ccccc3N)C(=O)O[C@@H]2C)cc1 [Compound 38] / Enterococcus faecium EFM.384, Daptomycin resistant mutant (14-A), Efm384 MIC recorded as 1

###

Entries and their measured Efs201 MIC follow.
System: Enterococcus faecalis EFS.201 (ATCC 49452)
Assay type: cell-based
Conditions: ATCC 49452
Report as a plain number; the unit µg/mL is understood.

// below: answered compounds
Efs201 MIC reading for CC(C)CCCCCCCCCC(=O)N[C@@H](Cc1c[nH]c2ccccc12)C(=O)N[C@H](CC(N)=O)C(=O)N[C@@H](CC(=O)O)C(=O)N[C@@H]1C(=O)NCC(=O)N[C@@H](CCCN)C(=O)N[C@@H](CC(=O)O)C(=O)N[C@H](C)C(=O)N[C@@H](CC(=O)O)C(=O)NCC(=O)N[C@H](CO)C(=O)N[C@@H]([C@H](C)CC(=O)O)C(=O)N[C@@H](CC(=O)c2ccccc2N)C(=O)O[C@@H]1C [Compound 10] : 0.13

Efs201 MIC reading for C[C@H](CC(=O)O)[C@@H]1NC(=O)[C@@H](CO)NC(=O)CNC(=O)[C@H](CC(=O)O)NC(=O)[C@@H](C)NC(=O)[C@H](CC(=O)O)NC(=O)[C@H](CCCN)NC(=O)CNC(=O)[C@@H](NC(=O)[C@H](CC(=O)O)NC(=O)[C@@H](CC(N)=O)NC(=O)[C@H](Cc2c[nH]c3ccccc23)NC(=O)CCCCCCC2CCCCC2)[C@@H](C)OC(=O)[C@H](CC(=O)c2ccccc2N)NC1=O [Compound 25] : 0.5

Efs201 MIC reading for CCCCCCCc1ccc(C(=O)N[C@@H](Cc2c[nH]c3ccccc23)C(=O)N[C@H](CC(N)=O)C(=O)N[C@@H](CC(=O)O)C(=O)N[C@@H]2C(=O)NCC(=O)N[C@@H](CCCN)C(=O)N[C@@H](CC(=O)O)C(=O)N[C@H](C)C(=O)N[C@@H](CC(=O)O)C(=O)NCC(=O)N[C@H](CO)C(=O)N[C@@H]([C@H](C)CC(=O)O)C(=O)N[C@@H](CC(=O)c3ccccc3N)C(=O)O[C@@H]2C)cc1 [Compound 33] : 0.5

Shift focus to the following entry.
Efs201 MIC reading for CC(C)c1ccc(CCCC(=O)N[C@@H](Cc2c[nH]c3ccccc23)C(=O)N[C@H](CC(N)=O)C(=O)N[C@@H](CC(=O)O)C(=O)N[C@@H]2C(=O)NCC(=O)N[C@@H](CCCN)C(=O)N[C@@H](CC(=O)O)C(=O)N[C@H](C)C(=O)N[C@@H](CC(=O)O)C(=O)NCC(=O)N[C@H](CO)C(=O)N[C@@H]([C@H](C)CC(=O)O)C(=O)N[C@@H](CC(=O)c3ccccc3N)C(=O)O[C@@H]2C)cc1 [Compound 30] : 8
